molecular target: CFTR ΔF508 mutant (Homo sapiens, UniProt P13569, DEL508-508); construct: expressed in transfected cells; host or cells: CFBE41o- (adenoviral transduction); assay: YFP-halide influx assay for the CFTR-ΔF508 mutation, PBS buffer (96 well); assay type: cell-based; settings: CFBE41o- cells, forskolin 10.67 μM
Sequence (P13569 with tags, fused parts or gaps DEL508-508): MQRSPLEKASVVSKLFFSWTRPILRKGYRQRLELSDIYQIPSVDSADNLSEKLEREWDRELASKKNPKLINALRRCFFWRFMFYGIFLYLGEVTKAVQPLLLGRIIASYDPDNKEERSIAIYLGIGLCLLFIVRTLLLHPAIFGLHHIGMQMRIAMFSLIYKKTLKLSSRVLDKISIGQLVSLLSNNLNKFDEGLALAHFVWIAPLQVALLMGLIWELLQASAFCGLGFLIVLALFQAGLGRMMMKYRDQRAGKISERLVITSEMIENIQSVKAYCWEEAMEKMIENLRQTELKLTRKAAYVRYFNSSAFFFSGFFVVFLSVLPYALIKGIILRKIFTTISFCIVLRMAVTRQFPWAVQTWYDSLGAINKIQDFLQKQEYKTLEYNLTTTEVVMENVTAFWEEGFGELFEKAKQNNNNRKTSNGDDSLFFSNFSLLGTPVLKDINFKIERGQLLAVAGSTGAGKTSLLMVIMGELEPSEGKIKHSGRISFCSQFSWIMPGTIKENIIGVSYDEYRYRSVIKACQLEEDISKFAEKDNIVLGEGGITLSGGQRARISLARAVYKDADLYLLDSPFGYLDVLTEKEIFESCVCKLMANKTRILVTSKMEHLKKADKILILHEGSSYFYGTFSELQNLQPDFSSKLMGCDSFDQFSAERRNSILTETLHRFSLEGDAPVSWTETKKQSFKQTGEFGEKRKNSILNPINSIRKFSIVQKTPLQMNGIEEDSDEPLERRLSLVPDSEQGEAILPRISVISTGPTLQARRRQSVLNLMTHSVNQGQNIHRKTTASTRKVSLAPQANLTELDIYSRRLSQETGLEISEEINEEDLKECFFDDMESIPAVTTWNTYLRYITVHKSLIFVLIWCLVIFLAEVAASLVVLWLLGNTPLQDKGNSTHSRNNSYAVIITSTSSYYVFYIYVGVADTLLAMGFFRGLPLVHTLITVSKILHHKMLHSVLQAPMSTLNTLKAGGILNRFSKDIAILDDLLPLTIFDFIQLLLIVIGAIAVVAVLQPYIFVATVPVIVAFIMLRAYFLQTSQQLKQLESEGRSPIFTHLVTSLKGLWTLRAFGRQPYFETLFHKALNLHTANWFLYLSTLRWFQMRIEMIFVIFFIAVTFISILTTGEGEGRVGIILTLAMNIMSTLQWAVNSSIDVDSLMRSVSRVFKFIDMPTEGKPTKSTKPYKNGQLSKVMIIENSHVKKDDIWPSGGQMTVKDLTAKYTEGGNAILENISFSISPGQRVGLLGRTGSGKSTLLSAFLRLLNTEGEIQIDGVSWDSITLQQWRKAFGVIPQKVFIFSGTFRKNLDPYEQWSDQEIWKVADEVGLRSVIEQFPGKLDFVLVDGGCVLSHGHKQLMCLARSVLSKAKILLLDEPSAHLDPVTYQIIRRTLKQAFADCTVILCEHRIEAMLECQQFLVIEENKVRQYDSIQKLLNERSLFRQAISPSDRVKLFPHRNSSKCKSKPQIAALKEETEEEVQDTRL
MEASUREMENT TYPE: pEC50
As a rule, pEC50 stands for the negative log10 of the concentration, concentration in M.

Field: example entries. Status: answers known.
• CN(C)c1cccc(S(=O)(=O)c2cc(C(N)=O)c(NC(=O)C(C)(C)O)s2)c1 [Compound 292] = 7.15
• NC(=O)c1cc(S(=O)(=O)N2CCOc3ccccc32)sc1NC(=O)C1(O)CC1 [Compound 242] = 7.76
• CN(Cc1ccncc1)S(=O)(=O)c1cc(C(N)=O)c(NC(=O)c2cc[nH]n2)s1 [Compound 207] = 6.90

Which pEC50 is listed for COCCN(C1CC1)S(=O)(=O)c1cc(C(N)=O)c(NC(=O)C(C)(C)O)s1 [Compound 306] ?
6.59

Fill in: pEC50 of CC(C)c1cc(C(=O)Nc2sc(S(=O)(=O)N3CCC(F)(F)CC3)cc2C(N)=O)c(O)c(C(C)C)c1 [Compound 215] is ___
6.06

For the compound CN(Cc1ccc(F)cc1)S(=O)(=O)c1cc(C(N)=O)c(NC(=O)C(C)(C)O)s1 [Compound 305] , what pEC50 is on record?
7.50

Find the recorded pEC50 belonging to CC(C)(O)C(=O)Nc1sc(S(=O)(=O)N2CCOc3ccccc32)cc1C(N)=O [Compound 307] and report it.
7.48

What value of pEC50 has been recorded for this entry: CC(C)Oc1cccc(S(=O)(=O)c2cc(C(N)=O)c(NC(=O)C(C)(C)O)s2)c1 [Compound 265]
7.37

---

Reported pEC50 by item:
target: CFTR ΔF508 mutant (Homo sapiens, UniProt P13569, DEL508-508); construct: expressed in transfected cells; host or cells: CFBE41o- (adenoviral transduction); assay: YFP-halide influx assay for the CFTR-ΔF508 mutation (384 well, FDSS/μCell); type: cell-based; conditions: CFBE41o- cells, CFTR-ΔF508, 1×D-PBS, fluorescence after 36 seconds
# pEC50 = -log10(concentration in molar units)

* CC(CO)C(=O)Nc1sc(S(=O)(=O)c2ccc(C(F)(F)F)cc2)cc1C(N)=O (stereo not drawn) | 7.93
* NC(=O)c1cc(S(=O)(=O)c2ccc(OC(F)(F)F)cc2)sc1NC(=O)C1CCOC1 (stereo not drawn) | 6.97

Attention now turns to another entry.
Give its pEC50 value. Item: CCc1cc(C(=O)Nc2sc(S(=O)(=O)c3ccccc3)c(C)c2C(N)=O)n[nH]1
7.26

---

Reported EC50 is given for each of the following compounds.
Target: CFTR ΔF508 mutant (Homo sapiens, UniProt P13569, DEL508-508)
Construct: expressed in transfected cells; host or cells: CFBE41o- (adenoviral transduction)
Assay: YFP-halide influx assay for the CFTR-ΔF508 mutation (384 well, FDSS/μCell)
Type: cell-based
Conditions: CFBE41o- cells, CFTR-ΔF508, 1×D-PBS, fluorescence after 36 seconds
Protocol: The YFP halide influx assay measures the functionality of the cystic fibrosis Transmembrane Conductance regulator (CFTR) channels in the cystic fibrosis bronchial epithelium cell line CFBE41o-. […] It makes use of the observation that the yellow fluorescent protein (YFP) variant YFP H148Q, I152L has its fluorescence substantially quenched by halide ions like Cl— and I—. […] The I— induced quenching of fluorescence is recorded […] immediately after injection of I— for 2 min on an FDSS/μCell (Hamamatsu). […]
Report the figure in nM without appending any unit label.

Consider the worked cases shown below.
• CN(C1CC1)S(=O)(=O)c1cc(C(N)=O)c(NC(=O)c2cc[nH]n2)s1 = 6
• CC(C)N(C)S(=O)(=O)c1cc(C(N)=O)c(NC(=O)c2cc[nH]n2)s1 = 13.4
• CN(Cc1ccccc1)S(=O)(=O)c1cc(C(N)=O)c(NC(=O)c2ccn[nH]2)s1 = 15.7

Name the recorded EC50 for CC(C)(O)C(=O)Nc1sc(S(=O)(=O)c2cc(F)ccc2Br)cc1C(N)=O .
9.4

---

Measured EC50 by item
target: CFTR ΔF508 mutant (Homo sapiens, UniProt P13569, DEL508-508); construct: expressed in transfected cells; host or cells: CFBE41o- (adenoviral transduction); test: YFP-halide influx assay for the CFTR-ΔF508 mutation, gluconate buffer; type: cell-based; conditions: CFBE41o- cells, forskolin 10.67 μM
Form entry: value (nM) — number only.

- CN(Cc1ccc(C(F)(F)F)cc1)S(=O)(=O)c1cc(C(N)=O)c(NC(=O)c2cc[nH]n2)s1: 106

Entry Cc1ccc(C(=O)Nc2sc(S(=O)(=O)N3CCCCC3)cc2C(N)=O)s1 : reported EC50 = ?
135

Form field: reported EC50 of Cc1ccc(C(=O)Nc2sc(S(=O)(=O)c3ccccc3)c(C)c2C(N)=O)s1
138

Endpoint output: EC50 of NC(=O)c1cc(S(=O)(=O)N2CCC(F)(F)CC2)sc1NC(=O)C1(O)CCC1 . Value?
87.3

---

target: CFTR G551D mutant (Homo sapiens, UniProt P13569, G551D); construct: expressed in transfected cells; host or cells: HEK293 (reverse transfection with plasmid); assay: YFP-halide influx assay for the CFTR-G551D mutation; assay type: cell-based; settings: HEK293 cells, forskolin 10.67 μM
Sequence (P13569 whole entry G551D): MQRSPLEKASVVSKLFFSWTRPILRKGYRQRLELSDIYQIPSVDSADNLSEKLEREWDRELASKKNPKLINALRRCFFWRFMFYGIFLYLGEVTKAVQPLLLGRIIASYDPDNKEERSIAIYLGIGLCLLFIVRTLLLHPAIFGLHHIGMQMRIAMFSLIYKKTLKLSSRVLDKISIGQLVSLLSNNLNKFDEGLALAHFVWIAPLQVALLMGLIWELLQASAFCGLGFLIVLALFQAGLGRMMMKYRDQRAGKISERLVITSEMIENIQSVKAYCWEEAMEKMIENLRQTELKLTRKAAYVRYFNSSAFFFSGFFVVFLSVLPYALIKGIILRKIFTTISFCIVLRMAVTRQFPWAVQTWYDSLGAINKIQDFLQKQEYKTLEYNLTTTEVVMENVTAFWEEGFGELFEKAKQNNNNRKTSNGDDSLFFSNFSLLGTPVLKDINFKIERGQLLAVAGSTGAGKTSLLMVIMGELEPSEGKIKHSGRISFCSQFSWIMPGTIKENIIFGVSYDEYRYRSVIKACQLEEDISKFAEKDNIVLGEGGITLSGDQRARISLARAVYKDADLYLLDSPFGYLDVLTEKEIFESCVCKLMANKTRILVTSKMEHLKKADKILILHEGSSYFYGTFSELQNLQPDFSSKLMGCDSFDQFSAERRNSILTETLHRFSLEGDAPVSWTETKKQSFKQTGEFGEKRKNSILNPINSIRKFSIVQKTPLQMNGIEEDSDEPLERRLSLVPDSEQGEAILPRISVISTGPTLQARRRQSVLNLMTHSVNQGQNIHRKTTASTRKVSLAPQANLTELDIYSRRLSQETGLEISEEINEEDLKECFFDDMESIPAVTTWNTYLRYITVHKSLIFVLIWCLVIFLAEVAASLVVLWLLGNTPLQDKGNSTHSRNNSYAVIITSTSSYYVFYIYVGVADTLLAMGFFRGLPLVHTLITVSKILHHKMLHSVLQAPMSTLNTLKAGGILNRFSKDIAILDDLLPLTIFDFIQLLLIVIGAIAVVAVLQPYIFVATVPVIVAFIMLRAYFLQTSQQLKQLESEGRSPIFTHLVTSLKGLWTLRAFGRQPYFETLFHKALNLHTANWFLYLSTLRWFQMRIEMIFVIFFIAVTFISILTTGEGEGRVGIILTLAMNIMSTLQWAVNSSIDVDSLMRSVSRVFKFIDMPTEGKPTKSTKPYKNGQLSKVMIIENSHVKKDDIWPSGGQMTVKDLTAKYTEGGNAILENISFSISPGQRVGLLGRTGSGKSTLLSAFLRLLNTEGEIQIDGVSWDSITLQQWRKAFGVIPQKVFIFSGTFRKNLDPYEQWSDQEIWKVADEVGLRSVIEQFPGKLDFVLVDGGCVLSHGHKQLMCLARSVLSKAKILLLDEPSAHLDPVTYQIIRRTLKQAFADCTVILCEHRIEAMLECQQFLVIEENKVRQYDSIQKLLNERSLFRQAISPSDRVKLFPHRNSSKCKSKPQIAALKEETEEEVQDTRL
EC50 values for the compounds below.
Form field: result (number plus unit)

Answered cases to consult:
* CC(C)(C)c1cc(C(=O)Nc2sc(S(=O)(=O)N3CCC(F)(F)CC3)cc2C(N)=O)n[nH]1 [Compound 142] | 536 nM
* CC(O)C(=O)Nc1sc(S(=O)(=O)c2ccc(F)cc2Cl)cc1C(N)=O (single isomer, unassigned; enantiomer 1) [Compound 353] | 1720 nM
* CC(C)(O)C(=O)Nc1sc(S(=O)(=O)c2cc(F)c(F)cc2OC(F)F)cc1C(N)=O [Compound 404] | 553 nM
* CC(CO)C(=O)Nc1sc(S(=O)(=O)c2ccc(Cl)cc2OC(F)(F)F)cc1C(N)=O (stereo not shown) [Compound 387] | 1410 nM
* CC(C)(O)C(=O)Nc1sc(S(=O)(=O)c2ccccc2OC(F)(F)F)cc1C(N)=O [Compound 271] | 178 nM

Observed EC50 on CFTR G551D mutant (Homo sapiens, UniProt P13569, G551D) for CC(C)(O)C(=O)Nc1sc(S(=O)(=O)c2ccsc2C(F)(F)F)cc1C(N)=O [Compound 425] , please.
762 nM

Report EC50 for CC(O)C(=O)Nc1sc(S(=O)(=O)c2ccc(C(F)(F)F)cc2F)cc1C(N)=O (stereo not shown) [Compound 368] tested on CFTR G551D mutant (Homo sapiens, UniProt P13569, G551D).
321 nM

---

target: CFTR G551D mutant (Homo sapiens, UniProt P13569, G551D); construct: expressed in transfected cells; host or cells: HEK293 (reverse transfection with plasmid); assay: YFP-halide influx assay for the CFTR-G551D mutation; type: cell-based; conditions: HEK293 cells, forskolin 10.67 μM
Below, each of the compounds is paired with its reported pEC50 value.
// pEC50 is dimensionless: -log10 of concentration (M)

# example entries with known answers
* COc1cc(C#N)cc(S(=O)(=O)c2cc(C(N)=O)c(NC(=O)C(C)(C)O)s2)c1OC(F)F [Compound 419] | 6.17
* CN(Cc1ccc(F)cc1)S(=O)(=O)c1cc(C(N)=O)c(NC(=O)C2(O)CC2)s1 [Compound 231] | 6.17

Turning to the following compound.
Value lookup for pEC50; key = Cc1cccc(C)c1S(=O)(=O)c1cc(C(N)=O)c(NC(=O)C2(O)CC2)s1 [Compound 251]
5.90

---

target: CFTR G551D mutant (Homo sapiens, UniProt P13569, G551D); construct: expressed in transfected cells; host or cells: HEK293 (reverse transfection with plasmid); assay: YFP-halide influx assay for the CFTR-G551D mutation; format: cell-based; conditions: HEK293 cells, forskolin 10.67 μM
pEC50: −log10 of the molar value.
Response key: MET means pEC50 >= 6; NOT MET means pEC50 < 6.

Reference set (5 entries):
* CC1(C)CN(S(=O)(=O)c2cc(C(N)=O)c(NC(=O)c3cc[nH]n3)s2)C1 | MET
* NC(=O)c1cc(S(=O)(=O)c2c(Cl)cccc2Cl)sc1NC(=O)C1(O)CC1 | MET
* NC(=O)c1cc(S(=O)(=O)c2ccc(F)cc2)sc1NC(=O)C1(O)CC1 | MET
* NC(=O)c1cc(S(=O)(=O)c2ccc(F)cc2)sc1NC(=O)C(O)(C(F)(F)F)C(F)(F)F | NOT MET
* CC(O)C(=O)Nc1sc(S(=O)(=O)c2ccc(OC(F)F)cc2)cc1C(N)=O (stereo not shown) | NOT MET

For this compound, is measured pEC50 6 or higher? CC(O)C(=O)Nc1sc(S(=O)(=O)c2ccc(OC(F)(F)F)cc2Cl)cc1C(N)=O (stereo not shown)
MET

Source of measurements: patent US9382254B2
